system: NCI-H226 lung; test: NCI tumour cell line growth inhibition, 48 h; in the data active means GI50 below about 0.43 µM; inactive means the rest
Field 'call' accepts active, inactive

Status in this test for NC1=NC(c2ccc(F)cc2)C2=C(N1)c1ccc3ccccc3c1OCC2 (centres undefined) ?
inactive

For "Oc1ccc(CN(Cc2ccc(C(F)(F)F)cc2)Cc2ccc(O)c3ncccc23)c2cccnc12" then?
active

And then "Oc1cc(Cl)ccc1Cc1ccc(Cl)cc1O" , what is it?
inactive

Can you check "COc1cc(OC)cc(-c2cncn2-c2ccc(-c3nc4cc(OC)cc(OC)c4s3)cc2)c1" next?
inactive

###

Field: TGI. Provide a value for each of the compounds that follow.
system: HOP-92 NSCLC; experiment: NCI tumour cell line growth inhibition, 48 h

Recorded TGI of O=C(OCc1ccccc1)N1c2cc([N+](=O)[O-])ccc2C(=O)N2CCC[C@H]2C1O (some centres not stated) , please.
> 100 µM

Moving on to "CN(C)S(=O)(=O)c1ccc(Nc2ccc(O)c3c2C(=O)c2c([N+](=O)[O-])ccc(O)c2C3=O)cc1"
> 100 µM

Now try "NC(=O)c1c2c(cc3c(=O)c4ccccc4[nH]c13)CCCC2" .
> 100 µM

What do you have for "Cc1cn2c(=O)n(c1=O)Cc1ccccc1C2" ?
> 100 µM

Now this one: "O=C(c1ccccc1)N1C(=S)N(c2ccc([N+](=O)[O-])cc2)C(=Nc2ccccc2)C1=Nc1ccccc1"
> 100 µM

Ok, now CCOc1cc(C2SCC(=O)N2c2nc3cc4sc(N5C(=O)CSC5c5ccc(O)c(OCC)c5)nc4cc3s2)ccc1O (configuration not stated)
> 88.6 µM

Then this compound: "COc1cc(/C=C/C(=O)OC[C@H](Br)[C@H](OC(C)=O)c2ccc3c(c2)OCO3)cc(OC)c1OC"
> 100 µM

What do you get for "CO/C(=N\N=C\c1cccc(C(F)(F)F)c1)c1ccncc1" ?
> 100 µM

Field entry: NC(=O)NCCCC(NC(=O)OCCCCCn1ccc(=O)[nH]c1=O)C(=O)O (configuration not stated)
> 100 µM

Queued: "COc1ccc2c(c1)C(=O)c1c-2n(CCCN2CCOCC2)c(=O)c2cc([N+](=O)[O-])ccc12"
< 0.01 µM

Ok, now "CNC(=O)OCc1[nH]ccc2c(C)c3nc4ccc(OC)cc4c3cc12"
> 100 µM

Please answer likewise for CCOC(=O)C(C)c1nc2cc(N3CCN(C)CC3)c(F)cc2[nH]c1=O (configuration not stated)
> 100 µM

###

Exercise: for every item that follows, state its recorded TGI.
system: UO-31 renal; assay: NCI tumour cell line growth inhibition, 48 h

Any idea what its TGI is? The molecule is "CC(C)(C)OC(=O)NCC(=O)N1CCCN(C(=O)CNC(=O)OC(C)(C)C)CC1"
> 100 µM

Also need "CNC(=O)OCc1[nH]ccc2c(C)c3nc4ccc(OC)cc4c3cc12" , thanks.
> 53.9 µM

// repeat for "CC(=N\N=C\c1ccccn1)/C(C)=N/N=C(C)/C(C)=N/N=C(C)/C(C)=N/N=C/c1ccccn1" and report
> 100 µM

Okay, and "c1ccc(Nc2nnc(-c3nsc4ccccc34)o2)cc1" ?
> 100 µM

Follow-up item: C=CCN(CC=C)CC(C(C)=O)C(c1ccccc1)c1c(O)c2ccccc2oc1=O (stereo not given)
> 100 µM

The measured values listed here are drawn from PubChem BioAssay (NCI).
